# System name: Full length EN PA (influenza PA endonuclease) (Influenza A virus)
# Procedure summary: EN PA FRET inhibition assay
# Type: biochemical
# Experimental conditions: FRET probe, mean of a minimum of two independent experiments, read-out: Potency (IC50 class, Table 3)
# IC50 values compiled below

# Molecule, IC50
rows = [
    ("CCN1C[C@@H](C(c2cccc(Cl)c2)c2cccc(Cl)c2)n2ncc(=O)c(O)c2C1=O", "250 to 1000 nM"),
    ("CC(C)Oc1cccc(C(c2ccccc2)[C@H]2CN(C)C(=O)c3c(O)c(=O)cnn32)c1 (stereo partly shown)", "< 250 nM"),
    ("CN1C[C@@H](C2c3cc(Cl)ccc3CCc3ccc(Cl)cc32)n2ncc(=O)c(O)c2C1=O", "< 250 nM"),
    ("CN1CC(C2c3ccccc3CCc3cccnc32)n2ncc(=O)c(O)c2C1=O (stereo not shown)", "< 250 nM"),
    ("O=C1c2c(O)c(=O)cnn2[C@@H](C2c3ccccc3CCc3ccccc32)CN1Cc1ccccc1", "< 250 nM"),
    ("CCN1CC(C(c2ccccc2)c2cccc(C)c2)n2ncc(=O)c(O)c2C1=O (stereo not shown)", "< 250 nM"),
    ("CCN1CC(C(c2ccccc2)c2cccc(OC)c2)n2ncc(=O)c(O)c2C1=O (stereo not shown)", "< 250 nM"),
    ("CC(C)N1CC(C(c2ccccc2)c2cccc(-c3ccccc3)c2)n2ncc(=O)c(O)c2C1=O (stereo not shown)", "< 250 nM"),
    ("CC(C)COC(=O)Oc1c2n(ncc1=O)[C@@H](C(c1ccccc1)c1ccccc1)CN(C(C)C)C2=O", "≥ 1000 nM"),
    ("CCN1C[C@H](C(c2cccc(F)c2)c2cccc(F)c2)n2ncc(=O)c(O)c2C1=O", "< 250 nM"),
    ("CC(C)N1C[C@@H](C(c2ccccc2)c2ccccc2)n2ncc(=O)c(O)c2C1=O", "250 to 1000 nM"),
    ("CN1C[C@H](C2c3cc(F)ccc3CCc3ccc(F)cc32)n2ncc(=O)c(O)c2C1=O", "< 250 nM"),
    ("CN1C[C@@H](C2c3cc(F)ccc3CCc3ccc(F)cc32)n2ncc(=O)c(O)c2C1=O", "< 250 nM"),
    ("CC(C)CN1C[C@H](C(c2cccc(F)c2)c2cccc(F)c2)n2ncc(=O)c(O)c2C1=O", "< 250 nM"),
    ("CC(C)N1C[C@H]([C@@H](c2ccccc2)c2ccccn2)n2ncc(=O)c(O)c2C1=O", "< 250 nM"),
    ("CCN1C[C@H](C(c2cccc(F)c2)c2cccc(F)c2)n2ncc(=O)c(OC(=O)C(C)C)c2C1=O", "< 250 nM"),
]

###

Notes on pIC50 obtained with Full length EN PA (influenza PA endonuclease) (Influenza A virus, UniProt P15659).
pIC50: −log10 of the molar value.
Measurement label: pIC50

# Compound, Measurement label, Result
records = [
    ("CN1C[C@@H](C2c3ccccc3CCc3ccccc32)n2ncc(=O)c(O)c2C1=O", "pIC50", "> 6.60"),
    ("CC(N1CC(=C(c2ccccc2)c2ccccc2)n2ncc(=O)c(O)c2C1=O)C(F)(F)F (stereo not shown)", "pIC50", "≤ 6.00"),
    ("CN1CC(C(c2ccccc2)c2cccc(OC3CC3)c2)n2ncc(=O)c(O)c2C1=O (stereo not shown)", "pIC50", "> 6.60"),
    ("CN1C[C@H]([C@H]2c3cc(F)ccc3CCc3c(F)cccc32)n2ncc(=O)c(O)c2C1=O", "pIC50", "> 6.60"),
]

###

# System name: Full length EN PA (influenza PA endonuclease) (Influenza A virus, UniProt P15659)
Measurement label: IC50

# Compound, System name, Measurement label, Result
records = [
    ("CC(C)N1C[C@H]([C@@H](c2ccccc2)n2ccc(C#N)n2)n2ncc(=O)c(O)c2C1=O [Compound 127-C]", "Full length EN PA (influenza PA endonuclease) (Influenza A virus, UniProt P15659)", "IC50", "0.25 to 1 µM"),
    ("CC(C)C(=O)Oc1c2n(ncc1=O)[C@@H](C(c1cccc(F)c1)c1cccc(F)c1)CN(C(C)C)C2=O [Compound 70-A]", "Full length EN PA (influenza PA endonuclease) (Influenza A virus, UniProt P15659)", "IC50", "< 0.25 µM"),
    ("CC(C)N1C[C@@H](C(c2ccccc2)c2ccccc2)n2ncc(=O)c(OCOC(=O)C(C)(C)N)c2C1=O [Compound 113-B]", "Full length EN PA (influenza PA endonuclease) (Influenza A virus, UniProt P15659)", "IC50", "0.25 to 1 µM"),
    ("CC(C)C(=O)Oc1c2n(ncc1=O)[C@@H](C(c1ccccc1)c1ccccc1)CN(C(C)C)C2=O [Compound 69-A]", "Full length EN PA (influenza PA endonuclease) (Influenza A virus, UniProt P15659)", "IC50", "< 0.25 µM"),
    ("O=C1c2c(O)c(=O)cnn2[C@@H](C(c2cccc(F)c2)c2cccc(F)c2)CN1Cc1ccccc1 [Compound 75-A]", "Full length EN PA (influenza PA endonuclease) (Influenza A virus, UniProt P15659)", "IC50", "< 0.25 µM"),
    ("CN1C[C@@H](C2c3ccc(F)cc3CCc3c(F)cccc32)n2ncc(=O)c(O)c2C1=O (stereo partly drawn) [Compound 81-B]", "Full length EN PA (influenza PA endonuclease) (Influenza A virus, UniProt P15659)", "IC50", "< 0.25 µM"),
    ("CN1C[C@H]([C@@H](c2ccccc2)n2ccnc2)n2ncc(=O)c(O)c2C1=O [Compound 108-A]", "Full length EN PA (influenza PA endonuclease) (Influenza A virus, UniProt P15659)", "IC50", "< 0.25 µM"),
    ("C[C@@H](N1CC(C(c2ccccc2)c2ccccc2)n2ncc(=O)c(O)c2C1=O)C(F)(F)F (stereo partly drawn) [Compound 35-B]", "Full length EN PA (influenza PA endonuclease) (Influenza A virus, UniProt P15659)", "IC50", "0.25 to 1 µM"),
    ("CCN1C[C@H](C(c2cccc(F)c2)c2cccc(F)c2)n2ncc(=O)c(OCOC(=O)NC)c2C1=O [Compound 94-A]", "Full length EN PA (influenza PA endonuclease) (Influenza A virus, UniProt P15659)", "IC50", "≥ 1 µM"),
    ("C#Cc1ccn(C(c2ccccc2)C2CN(C)C(=O)c3c(O)c(=O)cnn32)n1 (stereo not drawn) [Compound 109]", "Full length EN PA (influenza PA endonuclease) (Influenza A virus, UniProt P15659)", "IC50", "< 0.25 µM"),
    ("Cc1ccccc1CC1CN(C)C(=O)c2c(O)c(=O)cnn21 (stereo not drawn) [Compound 4]", "Full length EN PA (influenza PA endonuclease) (Influenza A virus, UniProt P15659)", "IC50", "< 0.25 µM"),
    ("CCN1C[C@H](C(c2cccc(Cl)c2)c2cccc(Cl)c2)n2ncc(=O)c(O)c2C1=O [Compound 39-A]", "Full length EN PA (influenza PA endonuclease) (Influenza A virus, UniProt P15659)", "IC50", "< 0.25 µM"),
    ("CC(C)N1C[C@H](C(c2ccccc2)c2ccccc2)n2ncc(=O)c(O)c2C1=O [Compound 6-A]", "Full length EN PA (influenza PA endonuclease) (Influenza A virus, UniProt P15659)", "IC50", "< 0.25 µM"),
    ("CCCN1C[C@H](C(c2cccc(Cl)c2)c2cccc(Cl)c2)n2ncc(=O)c(O)c2C1=O [Compound 84-A]", "Full length EN PA (influenza PA endonuclease) (Influenza A virus, UniProt P15659)", "IC50", "< 0.25 µM"),
    ("CN1CC(C(c2ccccc2)c2ccccc2)n2ncc(=O)c(O)c2C1=O (stereo not drawn) [Compound 1]", "Full length EN PA (influenza PA endonuclease) (Influenza A virus, UniProt P15659)", "IC50", "< 0.25 µM"),
    ("CN1C[C@@H](C(c2ccccc2)c2ccccc2)n2ncc(=O)c(O)c2C1=O [Compound 1-B]", "Full length EN PA (influenza PA endonuclease) (Influenza A virus, UniProt P15659)", "IC50", "0.25 to 1 µM"),
    ("CN1C[C@H](C2c3ccc(F)cc3CCc3cc(F)ccc32)n2ncc(=O)c(O)c2C1=O [Compound 89-A]", "Full length EN PA (influenza PA endonuclease) (Influenza A virus, UniProt P15659)", "IC50", "< 0.25 µM"),
    ("CCN1C[C@@H](C2c3ccccc3CCc3ccccc32)n2ncc(=O)c(O)c2C1=O [Compound 14-B]", "Full length EN PA (influenza PA endonuclease) (Influenza A virus, UniProt P15659)", "IC50", "< 0.25 µM"),
    ("CCC#Cc1ccn([C@@H](c2ccccc2)[C@@H]2CN(C)C(=O)c3c(O)c(=O)cnn32)n1 [Compound 125]", "Full length EN PA (influenza PA endonuclease) (Influenza A virus, UniProt P15659)", "IC50", "< 0.25 µM"),
    ("CCC#Cc1ccn(C(c2ccccc2)C2CN(C(C)C)C(=O)c3c(O)c(=O)cnn32)n1 (stereo not drawn) [Compound 126]", "Full length EN PA (influenza PA endonuclease) (Influenza A virus, UniProt P15659)", "IC50", "< 0.25 µM"),
    ("CCN1CC(C(c2ccccc2)c2ccccc2)n2ncc(=O)c(O)c2C1=O (stereo not drawn) [Compound 5]", "Full length EN PA (influenza PA endonuclease) (Influenza A virus, UniProt P15659)", "IC50", "< 0.25 µM"),
    ("CN1C[C@@H]([C@H](c2ccccc2)c2cccc(OC3CC3)c2)n2ncc(=O)c(O)c2C1=O [Compound 105-C]", "Full length EN PA (influenza PA endonuclease) (Influenza A virus, UniProt P15659)", "IC50", "0.25 to 1 µM"),
    ("CC(C)N1CC(C2c3ccccc3CCc3ccccc32)n2ncc(=O)c(O)c2C1=O (stereo not drawn) [Compound 17]", "Full length EN PA (influenza PA endonuclease) (Influenza A virus, UniProt P15659)", "IC50", "< 0.25 µM"),
    ("O=C1c2c(O)c(=O)cnn2[C@@H](C(c2cccc(F)c2)c2cccc(F)c2)CN1CCO [Compound 92-A]", "Full length EN PA (influenza PA endonuclease) (Influenza A virus, UniProt P15659)", "IC50", "< 0.25 µM"),
    ("CCN1C[C@H]([C@@H](c2ccccc2)c2cccc(Cl)c2)n2ncc(=O)c(O)c2C1=O [Compound 12-A]", "Full length EN PA (influenza PA endonuclease) (Influenza A virus, UniProt P15659)", "IC50", "< 0.25 µM"),
    ("C[C@@H](N1C[C@@H](C(c2ccccc2)c2ccccc2)n2ncc(=O)c(O)c2C1=O)C(F)(F)F [Compound 18-B]", "Full length EN PA (influenza PA endonuclease) (Influenza A virus, UniProt P15659)", "IC50", "< 0.25 µM"),
    ("CC(C)N1CC(C2c3cccc(F)c3CCc3c(F)cccc32)n2ncc(=O)c(O)c2C1=O (stereo not drawn) [Compound 51]", "Full length EN PA (influenza PA endonuclease) (Influenza A virus, UniProt P15659)", "IC50", "< 0.25 µM"),
    ("C[C@@H](N1C[C@@H](C2c3ccccc3CCc3ccccc32)n2ncc(=O)c(O)c2C1=O)C(F)(F)F [Compound 33-B]", "Full length EN PA (influenza PA endonuclease) (Influenza A virus, UniProt P15659)", "IC50", "< 0.25 µM"),
    ("CCN1C[C@H](C(c2cccc(F)c2)c2cccc(F)c2)n2ncc(=O)c(OCOC(=O)NCCN3CCOCC3)c2C1=O [Compound 91-A]", "Full length EN PA (influenza PA endonuclease) (Influenza A virus, UniProt P15659)", "IC50", "≥ 1 µM"),
    ("[2H]c1c([2H])c([2H])c(C(c2c([2H])c([2H])c([2H])c([2H])c2[2H])[C@H]2CN(C(C)C)C(=O)c3c(O)c(=O)cnn32)c([2H])c1[2H] [Compound 129]", "Full length EN PA (influenza PA endonuclease) (Influenza A virus, UniProt P15659)", "IC50", "< 0.25 µM"),
]

FYI, the data here is from patent US10980805B2.
